system: HDQ-P1; experiment: normalised viability (% of control), CellTiter-Blue; higher = more viable cells (about 100 = DMSO control); conditions: 100 nM; incubation time: 72 h
ASSAY METRIC: normalised viability

Below: 3 compounds and their reported normalised viability.
Check the records and state normalised viability for c1ccc2c(CCNc3ccc(Nc4ccncc4)cc3)c[nH]c2c1
96.7%

Give the measured normalised viability for O=C(Nc1cccnc1)N1CCC(Cc2cccc(Oc3ccc(C(F)(F)F)cn3)c2)CC1
113%

Return reported normalised viability. Input compound: COc1cc(OC2CCN(C)CC2)ccc1Nc1ncc2c(n1)n(C1CCCC1)c(=O)n2C
118%

Please turn your attention to the following entry.
Could you please provide reported normalised viability for COC(=O)c1ccc2c(c1)NC(=O)/C2=C(\Nc1ccc(N(C)C(=O)CN2CCN(C)CC2)cc1)c1ccccc1 ? Thanks!
124%

====

Assign normalised viability to each entry below.
system: MDA-MB-468; assay: normalised viability (% of control), CellTiter-Blue; higher = more viable cells (about 100 = DMSO control); details: 100 nM; incubation time: 72 h
One number for each entry, in %.

Return value of normalised viability for input COc1cc(OC2CCN(C)CC2)ccc1Nc1ncc2c(n1)n(C1CCCC1)c(=O)n2C [AZ 3146] , no commentary.
106

Please report the measured normalised viability for CN(C)c1nc(N(C)C)nc(N(C)C)n1 [Altretamine]
104

Give normalised viability for O=C(Nc1ccncc1)C(=O)c1cn(Cc2ccc(Cl)cc2)c2ccccc12 [Indibulin]
61.1

Read off the recorded normalised viability for COCC[n+]1c2c(n(Cc3cnccn3)c1C)C(=O)c1ccccc1C2=O [YM155]
0.74

Hello, please tell me recorded normalised viability for this one: O=C(/C=C/c1cccc(S(=O)(=O)Nc2ccccc2)c1)NO [Belinostat]
88.5

Dear colleague, could you send me normalised viability for each of the items below? Thanks.
1. COC(=O)c1ccc2c(c1)NC(=O)/C2=C(\Nc1ccc(N(C)C(=O)CN2CCN(C)CC2)cc1)c1ccccc1 [BIBF 1120]
2. Cc1cc(Nc2cc(CN3CCOCC3)c3nc(C)c(Cc4ccc(Cl)cc4F)n3n2)n[nH]1

[111, 103]

====

Provide the recorded normalised viability for the entries that follow.
test system: MDA-MB-468; test: normalised viability (% of control), CellTiter-Blue; higher = more viable cells (about 100 = DMSO control); conditions: 1000 nM; incubation time: 72 h
Numbers only, in %.

Please report normalised viability for the following compound: COCC1(CO)C(=O)C2CCN1CC2 (stereo not given)
115

// fetch normalised viability given entry Oc1ccc2c(c1)CC[C@H](c1ccccc1)[C@@H]2c1ccc(OCCN2CCCC2)cc1
94.4

Please give measured normalised viability of the following entry: CC(C)C[C@@H](C(=O)N[C@H](C(=O)OC1CCCC1)c1ccccc1)[C@H](O)C(=O)NO
55.5

Answer with reported normalised viability of COCC[n+]1c2c(n(Cc3cnccn3)c1C)C(=O)c1ccccc1C2=O
0.21

Each compound below has a reported value. Please supply its normalised viability.
1. CNC(=O)c1cc(Oc2ccc(NC(=O)Nc3ccc(Cl)c(C(F)(F)F)c3)c(F)c2)ccn1
2. CO[C@H]1C[C@@H]2CC[C@@H](C)[C@@](O)(O2)C(=O)C(=O)N2CCCC[C@H]2C(=O)O[C@H]([C@H](C)C[C@@H]2CC[C@@H](OP(C)(C)=O)[C@H](OC)C2)CC(=O)[C@H](C)/C=C(\C)[C@@H](O)[C@@H](OC)C(=O)[C@H](C)C[C@H](C)/C=C/C=C/C=C/1C
3. CN(C)CCOc1ccc(/C(=C(/CCCl)c2ccccc2)c2ccccc2)cc1
4. C=C1C[C@@H]2[C@H](CC[C@]3(C)C(=O)CC[C@@H]23)[C@@]2(C)C=CC(=O)C=C12
5. Cc1cc(Nc2cc(CN3CCOCC3)c3nc(C)c(Cc4ccc(Cl)cc4F)n3n2)n[nH]1
6. CN(C)c1nc(N(C)C)nc(N(C)C)n1

116
60.4
109
112
61.4
104

====

system: MDA-MB-468; experiment: normalised response (% of control), CellTiter-Glo; higher = more viable cells (100 = DMSO, 0 = benzethonium chloride kill control); conditions: incubation time: 72 h
ASSAY METRIC: normalised response (%)
One number for each entry, in %.

Determine its reported normalised response: N#Cc1ccc(COC[C@H]2O[C@@H](n3c(NCc4ccc(Cl)c(Cl)c4)nc4c(N)ncnc43)[C@H](O)[C@@H]2O)cc1 (100 nM)
100

Note normalised response for the compound shown: Nc1cc(C(F)(F)F)c(-c2cc(N3CCOCC3)nc(N3CCOCC3)n2)cn1 [Buparlisib] (100 nM)
92.1

Return the recorded normalised response value; entry: COc1cc2ncnc(Nc3ccc(F)c(Cl)c3)c2cc1OCCCN1CCOCC1 [Gefitinib] (100 nM)
96

Name the recorded normalised response of the compound listed here: Cc1[nH]c2ccccc2c1CCNCc1ccc(/C=C/C(=O)NO)cc1 [Panobinostat] (10 nM)
84.6

For every listed record, write down its normalised response.
1. O=P1(N(CCCl)CCCl)NCCCO1 (centres undefined) [Cyclophosphamide] (400 nM)
2. Cc1cc(Nc2cc(CN3CCOCC3)c3nc(C)c(Cc4ccc(Cl)cc4F)n3n2)n[nH]1 [Gandotinib] (100 nM)
3. CNC(=O)c1ccc(N2C(=S)N(c3ccc(C#N)c(C(F)(F)F)c3)C(=O)C23CCC3)cc1F [RD162] (100 nM)
4. CCc1c2c(nc3ccc(OC(=O)N4CCC(N5CCCCC5)CC4)cc13)-c1cc3c(c(=O)n1C2)COC(=O)[C@]3(O)CC [Irinotecan] (100 nM)

[102, 97.9, 108, 111]

Give me measured normalised response, please, for this compound: O=C(Nc1ccncc1)C(=O)c1cn(Cc2ccc(Cl)cc2)c2ccccc12 [Indibulin] (100 nM)
95.8

====

test system: BT-549; experiment: normalised viability (% of control), CellTiter-Blue; higher = more viable cells (about 100 = DMSO control); settings: 1000 nM; incubation time: 72 h
ASSAY METRIC: normalised viability (%)
Numbers only, in %.

Solved entries (count: 3):
Provide normalised viability value for the following compound: Nc1cc(C(F)(F)F)c(-c2cc(N3CCOCC3)nc(N3CCOCC3)n2)cn1 [BKM-120]
62.5

Name the recorded normalised viability of the item O=C(Nc1cccnc1)N1CCC(Cc2cccc(Oc3ccc(C(F)(F)F)cn3)c2)CC1 [PF-3845] in your answer.
86.9

Give the value of normalised viability reported for the following: COC(=O)c1ccc2c(c1)NC(=O)/C2=C(\Nc1ccc(N(C)C(=O)CN2CCN(C)CC2)cc1)c1ccccc1 [BIBF 1120]
111

Attention now turns to another entry.
Given the compound Cc1[nH]c2ccccc2c1CCNCc1ccc(/C=C/C(=O)NO)cc1 [Panobinostat] , write its reported normalised viability.
14.7

====

tested on: Hs578T; assay: normalised viability (% of control), CellTiter-Blue; higher = more viable cells (100 = DMSO, 0 = benzethonium chloride kill control); settings: incubation time: 72 h
Give measured normalised viability for each item. Keep answers brief.
Answers are plain numbers, in %.

Below are worked cases with known answers.
Return the recorded normalised viability value; entry: Cc1[nH]c2ccccc2c1CCNCc1ccc(/C=C/C(=O)NO)cc1 [Panobinostat] (0.1 nM)
100

In one line, give reported normalised viability of the entry c1ccc2c(CCNc3ccc(Nc4ccncc4)cc3)c[nH]c2c1 [Serdemetan] (1 nM) .
97.5

Kindly indicate its recorded normalised viability. Item: CNC(=O)c1cc(Oc2ccc(NC(=O)Nc3ccc(Cl)c(C(F)(F)F)c3)c(F)c2)ccn1 [Regorafenib] (1 nM)
84.9

Retrieve normalised viability measured for N#Cc1ccc(COC[C@H]2O[C@@H](n3c(NCc4ccc(Cl)c(Cl)c4)nc4c(N)ncnc43)[C@H](O)[C@@H]2O)cc1 (1 nM) and print it.
92.8

Quote normalised viability reported for O=C(Nc1ccncc1)C(=O)c1cn(Cc2ccc(Cl)cc2)c2ccccc12 [Indibulin] (1 nM) please.
111

Others:
Give the reported normalised viability for this molecule. Cc1cc(Nc2cc(CN3CCOCC3)c3nc(C)c(Cc4ccc(Cl)cc4F)n3n2)n[nH]1 (1 nM)
107

====

tested on: BT-549; experiment: normalised response (% of control), CellTiter-Glo; higher = more viable cells (100 = DMSO, 0 = benzethonium chloride kill control); conditions: incubation time: 72 h
Kindly state normalised response for each of the entries shown.
One number for each entry, in %.

For the compound NC(=O)c1ccc(I)c([N+](=O)[O-])c1 [Iniparib] (100 nM) , report normalised response.
99

Kindly give each listed record's normalised response.
1. O=C(Nc1cccnc1)N1CCC(Cc2cccc(Oc3ccc(C(F)(F)F)cn3)c2)CC1 [PF-3845] (100 nM)
2. c1ccc2c(CCNc3ccc(Nc4ccncc4)cc3)c[nH]c2c1 [Serdemetan] (100 nM)
3. CC(C)C[C@@H](C(=O)N[C@H](C(=O)OC1CCCC1)c1ccccc1)[C@H](O)C(=O)NO [Tosedostat] (100 nM)
4. O=C(Nc1ccncc1)C(=O)c1cn(Cc2ccc(Cl)cc2)c2ccccc12 [Indibulin] (100 nM)
5. CCc1c2c(nc3ccc(OC(=O)N4CCC(N5CCCCC5)CC4)cc13)-c1cc3c(c(=O)n1C2)COC(=O)[C@]3(O)CC [Irinotecan] (100 nM)
6. CN(C)CCOc1ccc(/C(=C(/CCCl)c2ccccc2)c2ccccc2)cc1 [Toremifene] (100 nM)
7. CO[C@H]1C[C@@H]2CC[C@@H](C)[C@@](O)(O2)C(=O)C(=O)N2CCCC[C@H]2C(=O)O[C@H]([C@H](C)C[C@@H]2CC[C@@H](OP(C)(C)=O)[C@H](OC)C2)CC(=O)[C@H](C)/C=C(\C)[C@@H](O)[C@@H](OC)C(=O)[C@H](C)C[C@H](C)/C=C/C=C/C=C/1C [Ridaforolimus] (1 nM)

1: 104; 2: 101; 3: 70; 4: 81.8; 5: 95.3; 6: 101; 7: 68.4

Parameter requested: normalised response. Apply to each item below.
1. CNC(=O)c1ccc(N2C(=S)N(c3ccc(C#N)c(C(F)(F)F)c3)C(=O)C23CCC3)cc1F [RD162] (100 nM)
2. Cc1cc(Nc2cc(CN3CCOCC3)c3nc(C)c(Cc4ccc(Cl)cc4F)n3n2)n[nH]1 [Gandotinib] (100 nM)

1: 97.8; 2: 94.4

Numbers sourced from the supplement of paper PMC4862054.
